Test system: human breast MDA-MB-361 tumor cell line
Experiment: In vitro cell culture growth assay (MTS), MDA-MB-361
Type: cell-based
Settings: Homo sapiens, MDA-MB-361, 72 h, read-out: IC50 MDA-MB-361
PROPERTY NAME: pIC50
In simple prose, pIC50 is minus the logarithm base ten of a concentration in moles per litre.

# CPD SMILES, pIC50
measured = [
    ("COc1nc(-c2ccc(NC(=O)Nc3ccc(C(=O)N(C)CCN(C)C)cc3)cc2)nc(N2CCOCC2)n1", 7.82),
    ("O=C(Nc1ccc(C(=O)NCCN2CCCCC2)cc1)Nc1ccc(-c2nc(O[C@H]3CCOC3)nc(N3CCOCC3)n2)cc1", 8.30),
    ("COc1nc(-c2ccc(NC(=O)Nc3ccc(C(=O)N4CCNC(C)(C)C4)cc3)cc2)nc(N2CCOCC2)n1", 7.52),
]

QUERY: Find the measured pIC50 of `CC(C)Oc1nc(-c2ccc(NC(=O)Nc3ccc(C(=O)NCCN(C)C)cc3)cc2)nc(N2CCOCC2)n1` and report it.
RESULT: 7.96

The measurements presented in this section are drawn from patent US20090304692A1.
